assay: compounds binding Alexa647 anti-His antibody – biochemical, small-molecule microarray, 635 nm fluorescence, artefact control for SMM control protein annotation, primary screen (AID 1128); conditions: higher = more signal;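 also: score merges feature fluorescence with signal-to-noise for each printed compound spot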
Mark label 0 for composite z-score values under 0.3, and label 1 for everything at or above.

Is composite z-score for O=C1O[C@@H](c2ccccc2)[C@@H](c2ccccc2)N2[C@@H](c3ccc(O)cc3)[C@]3(C(=O)Nc4ccc(C#CCCO)cc43)[C@@H](C(=O)N3CCN(c4ncccn4)CC3)[C@H]12 at or above 0.3?
label 1

Assess whether reported composite z-score for C=C(C(=O)CC[C@H](OC(=O)c1ccccc1-c1ccccc1C(=O)O)c1cccc(OCCO)c1)C(C)C sits at 0.3 or higher.
label 0

Say whether O=C1O[C@H](c2ccccc2)[C@H](c2ccccc2)N2[C@H]1[C@@H](C(=O)O)[C@]1(C(=O)Nc3ccc(C#CCCO)cc31)[C@H]2c1ccccc1OCCO shows composite z-score of 0.3 or more.
label 1

Check the entry CO[C@H]1O[C@H](CO)[C@@H](OC(=O)Nc2ccc3c(c2)OCO3)[C@H](OC(=O)Nc2ccc3c(c2)OCO3)[C@@H]1OC(=O)Nc1ccc2c(c1)OCO2 : does composite z-score equal or exceed 0.3?
label 1

Could you verify whether the entry C=C(COC)C(=O)CC[C@@H](OC(C)=O)c1cccc(OCCO)c1 shows composite z-score of no less than 0.3?
label 0

Hi team, for COC(=O)[C@@]1(Cc2ccc(OC)cc2)[C@H]2c3cc(C(=O)N4CCCC4)n(CCc4c[nH]c5ccc(O)cc45)c3C[C@H]2CN1C(=O)c1ccccc1 , is the recorded composite z-score at or above 0.3?
label 0

Given the entry C#Cc1cc2ccccc2oc1=O , answer whether its composite z-score meets or surpasses 0.3.
label 0

hey, is composite z-score for this one >= 0.3? COCCCNC(=O)[C@@H]1c2ccccc2C(=O)N(C(C)C)[C@H]1c1ccc(CO)cc1
label 0

Kindly determine if composite z-score recorded for O=C1C[C@]2(c3ccc([N+](=O)[O-])cc3)C(=O)N(C3CC3)c3cc(CO)ccc3[C@H]2N1CC12CC3CC(CC(C3)C1)C2 is above or exactly 0.3.
label 0

Check this molecule for composite z-score at or above 0.3: C=CC[C@@]1(C(=O)NCCCOC)N=C(c2ccc(OCCCO)cc2)O[C@@H]1c1ccccc1N=[N+]=[N-]
label 1

Test whether the molecule C=CCNC(=O)[C@@H]1[C@H]2C(=O)O[C@H](c3ccccc3)[C@H](c3ccccc3)N2[C@H](c2ccccc2OCCO)[C@@]12C(=O)Nc1ccc(C#CCCO)cc12 records composite z-score of 0.3 or higher.
label 0

Please tell me: is the molecule Cc1ccc(C(C)CC(O)C2C=CC3C(=O)N(c4ccccc4)C(=O)C3N2Nc2ccccc2)o1 (stereo not given) at or over 0.3 in terms of composite z-score?
label 1

Tell me whether composite z-score is at least 0.3 here: CO[C@H]1O[C@H](CO)[C@@H](OC(=O)Nc2ccc(Br)cc2)[C@@H]2OC(=O)[C@@H](Cc3ccccc3)C/C=C/C[C@H](Cc3ccccc3)C(=O)O[C@@H]12
label 1

Check if composite z-score >= 0.3 (inclusive). Item: COC(=O)[C@@]1(Cc2ccccc2)[C@H]2c3cc(C(=O)N4CCCC4)n(CCc4ccccn4)c3C[C@H]2CN1C(=O)c1ccccc1
label 0
